Where these numbers come from: patent US6950754

Study target: pda8d
Assay comment: sedimentation equilibrium, monomer-dimer-tetramer model; dimer-to-tetramer self-association
pKd: −log10 of the molar value.
Parameter measured: pKd

For KPYTARIKGRTFSNEKELRDFLETFTGR (modifications not checked) [pda8d] , what is its reported pKd?
< 2.40
